test: activity coefficient (dimensionless); of the first substance listed, at infinite dilution; xn = mol fraction of the nth substance listed
run_parameters: 323.15 K; Liquid; Chromatography; x1 = 0
# Lookup of reported activity coefficient keyed by entry
Form: value (number only, do not type unit).

Some compounds with known activity coefficient results, for comparison:
- CCC[N+](=O)[O-] [1-nitropropane] + CCCOC[n+]1ccn(C)c1.N#C[N-]C#N: 1.36
- c1ccsc1 [thiophene] + CCCCCCCCn1cc[n+](COCCCOC[n+]2ccn(CCCCCCCC)c2C)c1C.N#C[N-]C#N.N#C[N-]C#N: 0.49
- CCCC(C)=O [pentan-2-one] + CCCOC[n+]1ccc(N(C)C)cc1.O=S(=O)([N-]S(=O)(=O)C(F)(F)F)C(F)(F)F: 0.75

Ask: Given CCCCO [butan-1-ol] + CCCOC[n+]1ccn(C)c1.N#C[N-]C#N , respond with its activity coefficient.
Reply: 1.37

Ask: Given CCC(C)CC [3-methylpentane] + CCCCCCCCn1cc[n+](COCCC)c1C.N#C[N-]C#N , respond with its activity coefficient.
Reply: 6.65

Ask: Given Cc1ccc(C)cc1 [1,4-dimethylbenzene] + CCCOC[n+]1ccn(C)c1.O=S(=O)([N-]S(=O)(=O)C(F)(F)F)C(F)(F)F , respond with its activity coefficient.
Reply: 2.58

Ask: Given CCCCCCCCCCC [undecane] + CN(C)c1cc[n+](COCCCOC[n+]2ccc(N(C)C)cc2)cc1.O=S(=O)([N-]S(=O)(=O)C(F)(F)F)C(F)(F)F.O=S(=O)([N-]S(=O)(=O)C(F)(F)F)C(F)(F)F , respond with its activity coefficient.
Reply: 114

Ask: Given Cc1ccccc1 [toluene] + CCCCCCCCn1cc[n+](COCCCOC[n+]2ccn(CCCCCCCC)c2C)c1C.N#C[N-]C#N.N#C[N-]C#N , respond with its activity coefficient.
Reply: 0.94

Ask: Given Cc1ccc(C)cc1 [1,4-dimethylbenzene] + CCCOC[n+]1ccn(Cc2ccccc2)c1.F[B-](F)(F)F , respond with its activity coefficient.
Reply: 5.12

Ask: Given Cc1ccc(C)cc1 [1,4-dimethylbenzene] + CN(C)c1cc[n+](COCCCOC[n+]2ccc(N(C)C)cc2)cc1.O=S(=O)([N-]S(=O)(=O)C(F)(F)F)C(F)(F)F.O=S(=O)([N-]S(=O)(=O)C(F)(F)F)C(F)(F)F , respond with its activity coefficient.
Reply: 1.34

Ask: Given c1ccccc1 [benzene] + CN(C)c1cc[n+](COCCCOC[n+]2ccc(N(C)C)cc2)cc1.O=S(=O)([N-]S(=O)(=O)C(F)(F)F)C(F)(F)F.O=S(=O)([N-]S(=O)(=O)C(F)(F)F)C(F)(F)F , respond with its activity coefficient.
Reply: 0.66

Ask: Given CCCCCCC [heptane] + Cn1cc[n+](COCCCOC[n+]2ccn(C)c2)c1.O=S(=O)([N-]S(=O)(=O)C(F)(F)F)C(F)(F)F.O=S(=O)([N-]S(=O)(=O)C(F)(F)F)C(F)(F)F , respond with its activity coefficient.
Reply: 53
